System: IGROV1 ovarian
Assay: NCI-60 one-dose screen, 48 h
Settings: 10 µM unless noted
The panel holds about 83,000 compounds, 20% with a hit somewhere; the sample as a whole holds those more often. Calls of active or inactive are those of the source. How the source made its calls: active means growth percent below 10; inactive means the rest.
Give your call using only these classes: YES for active, NO for inactive

{"Compound": "CC(=O)Oc1c(Cl)cccc1-c1ccccc1", "Label": "NO"}
{"Compound": "CC(C)(N)CO[C@H]1C[C@H]2CC[C@@]1(C)C2(C)C", "Label": "NO"}
{"Compound": "NNc1ncccn1", "Label": "NO"}

Challenge: Each compound tested received a call. Report the one for CN(C(=S)S(=O)(=O)C12CC3CC(CC(C3)C1)C2)c1ccccc1 .
Response given: YES

Challenge: Each compound tested received a call. Report the one for CC1(C)CC(=O)C=C(N)C1 .
Response given: NO

Challenge: Each compound tested received a call. Report the one for Cc1ccc(S(N)(=O)=O)cc1Cl .
Response given: NO

Challenge: Each compound tested received a call. Report the one for Cc1nc(C)c(C(=O)O)cc1C(=O)O .
Response given: NO

Challenge: Each compound tested received a call. Report the one for O=c1nc(Nc2cccc(Cl)c2)oc2cc(Cl)oc(=O)c12 .
Response given: NO

Challenge: Each compound tested received a call. Report the one for CCOC(=O)CNC(=O)Sc1ccc(C(C)(C)C)cc1 .
Response given: NO

----------
System: SW-620 colon
Assay: NCI-60 one-dose screen, 48 h (100 = growth as untreated, 0 = no growth, -100 = all killed)
Settings: 10 µM unless noted
Compounds without any hit were thinned out: in the full panel of roughly 83,000, 20% have a hit. Activity calls are given as the source filed them. How the source made its calls: active means growth percent below 10; inactive means the rest.
Readout Type: growth

{"Compound": "NC(=O)N1CCOCC1", "growth": "112% (inactive)"}
{"Compound": "COCC(N)=O", "growth": "99.7% (inactive)"}
{"Compound": "COC1OC(C(O)C(O)CO)C(O)C(O)C1O (stereo not drawn)", "growth": "105% (inactive)"}
{"Compound": "CN(C)c1ncnc2c1cnn2C", "growth": "98.7% (inactive)"}
{"Compound": "Cc1ccc(N)c(S(=O)(=O)O)c1", "growth": "101% (inactive)"}

Can you give me growth for all of these, one by one?
1. CCCCc1ccc2nc(NC(=O)OC)[nH]c2c1
2. CC(=O)/C(C)=N\OC(=O)Nc1ccccc1
3. Cc1cc2c3ccc(C)[n+](C)c3ccc2n1C
4. C/C(Cc1ccccc1)=N\O

Response given:
1: 14.4% (inactive); 2: 107% (inactive); 3: 15.1% (inactive); 4: 98.4% (inactive)

Can you give me growth for all of these, one by one?
1. S=c1nc(-c2ccccn2)c(-c2ccccn2)n[nH]1
2. CC(=O)[C@@]1(O)CC[C@H]2[C@@H]3CC[C@@H]4CC(=O)CC[C@]4(C)[C@H]3[C@@H](O)C[C@@]21C

Response given:
["106% (inactive)", "100% (inactive)"]

Can you give me growth for all of these, one by one?
1. COc1cc2c(c(OC)c1OC)-c1ccc(SC)c(=O)cc1[C@@H](NC1OC(CO)C(O)C(O)C1O)CC2 (stereo partly drawn)
2. NS(=O)(=O)c1cc(=O)[nH]c(=O)[nH]1

Response given:
1. 18.8% (inactive)
2. 109% (inactive)

----------
Tested on: A498 renal
Experiment: NCI-60 one-dose screen, 48 h
Conditions: 10 µM unless noted
This is part of a sample that, as a whole, favours compounds with a hit. Of some 83,000 tested, about 20% had one in any assay. The source made the active and inactive calls. The calls were made as follows: active = growth percent below 10; inactive = the rest.
Give your call using only these classes: YES = active, NO = inactive

Here's what some known entries look like.
{"Molecule": "COc1cc2c(c(OC)c1OC)-c1ccc(SC)c(=O)cc1[C@@H](NC1OC(CO)C(O)C(O)C1O)CC2 (stereo partly specified)", "Label": "YES"}
{"Molecule": "CCC(C)C1CCC(O)CC1 (stereo unspecified)", "Label": "NO"}
{"Molecule": "CC(C)c1ccccc1NC(=O)N1CCC(C(C)C)CC1", "Label": "NO"}
{"Molecule": "Cc1ccccc1CC(N)C(=O)O (stereo unspecified)", "Label": "NO"}
{"Molecule": "OC1Cc2ccccc2C1", "Label": "NO"}
{"Molecule": "CC(=O)/C(C)=N\\OC(=O)Nc1ccccc1", "Label": "NO"}
{"Molecule": "C[n+]1cc2cc3c(cc2c2ccccc21)OCO3", "Label": "NO"}
{"Molecule": "COc1cc(C(=O)N2CCN(c3ccccc3)CC2)c2ccccc2n1", "Label": "NO"}
{"Molecule": "CCN1CCCC(N2c3ccccc3Sc3ccccc32)C1 (stereo unspecified)", "Label": "NO"}
{"Molecule": "O=C1Nc2ccccc2/C1=C\\c1ccccc1O", "Label": "NO"}

Challenge: Each molecule tested received a call. Report the one for CCC1CCC(C)NC1 (stereo unspecified) .
Response given: NO

----------
System: SNB-19 CNS
Assay: NCI-60 one-dose screen, 48 h (100 = growth as untreated, 0 = no growth, -100 = all killed)
Settings: 10 µM unless noted
Description: Growth inhibition of the SNB-19 human tumor cell line is measured as a screen for anti-cancer activity. Cells are grown in 96 well plates and exposed to the test compound for 48 hours. Compounds are tested at a single concentration, which is 10^-5 M for most compounds. The reported endpoint is percent growth (GI% or GIPRCNT), where numbers from 0 - 100% represent growth inhibition, and numbers from -100% - 0 represent cell death. For example, a value of 40 represents 60% growth inhibition. […]
Compounds without any hit were thinned out: in the full panel of roughly 83,000, 20% have a hit.
Kindly state growth for each of the entries shown.
Numbers only, in %.

{"Compound": "CCNC(=O)OCCc1c2ccccc2nc2ccccc12", "Readout Type": "growth", "Result Value": 111}
{"Compound": "C=C(OC(C)=O)c1ccccc1", "Readout Type": "growth", "Result Value": 106}
{"Compound": "Oc1ccc(CCC2CCNc3ccccc32)cc1 (configuration not stated)", "Readout Type": "growth", "Result Value": 87.2}
{"Compound": "CCN(C(=O)Nc1ccccc1Cl)c1ccccc1", "Readout Type": "growth", "Result Value": 103}
{"Compound": "CC(C)(CC(=O)O)CC(=O)O", "Readout Type": "growth", "Result Value": 99.2}
{"Compound": "CCOC(=N)CC(=O)Nc1cccc(C)c1Cl", "Readout Type": "growth", "Result Value": 109}
{"Compound": "O=C(O)c1ccccc1Cc1ccc2c(c1)CCCC2", "Readout Type": "growth", "Result Value": 102}
{"Compound": "CC12CCC3c4ccc(O)cc4CCC3C1CCC2=O (configuration not stated)", "Readout Type": "growth", "Result Value": 98.2}

Can you give me growth for all of these, one by one?
1. C[C@H](CCC[C@H](C)OS(=O)(=O)c1ccccc1)OS(=O)(=O)c1ccccc1
2. COc1cc2c(c(OC)c1OC)-c1ccc(SC)c(=O)cc1[C@@H](NC1OC(CO)C(O)C(O)C1O)CC2 (some centres not stated)

Response given:
1. 94.5
2. 71.5

Can you give me growth for all of these, one by one?
1. CC(=O)NNC(=S)/N=C\C(C(=O)c1ccccc1)=C(/O)c1ccccc1
2. Nc1ncnc(Nc2ccc(C(F)(F)F)cc2)n1

Response given:
1. 105
2. 98.8

----------
Tested on: MALME-3M melanoma
Test: NCI-60 one-dose screen, 48 h (100 = growth as untreated, 0 = no growth, -100 = all killed)
Details: 10 µM unless noted
This is part of a sample that, as a whole, favours compounds with a hit. Of some 83,000 tested, about 20% had one in any assay.
Readout Type: growth (%)
One number for each entry, in %.

{"Molecule": "CC(=O)Oc1c(Cl)cccc1-c1ccccc1", "Reading Unit": "%", "Result Value": 111}
{"Molecule": "CCCCN(C(=O)CC)c1ccccc1", "Reading Unit": "%", "Result Value": 100}

Can you give me growth for all of these, one by one?
1. O=S(=O)(O)c1cccnc1
2. CCN(Cc1ccc(Cl)c(Cl)c1)c1ccc2nc(N)nc(N)c2c1C
3. OCC1CCC(O)C(CO)N1 (stereo unspecified)
4. CC(=O)NC(CCC(=O)c1ccccc1)C(=O)O (stereo unspecified)
5. COc1ccc(NNS(=O)(=O)O)cc1
6. C/C(=N\Nc1ccc([N+](=O)[O-])cc1[N+](=O)[O-])c1ccc(Br)cc1

Response given:
1. 90.1
2. -84
3. 106
4. 96.6
5. 104
6. 107

----------
Tested on: NCI-H460 lung
Experiment: NCI-60 one-dose screen, 48 h
Conditions: 10 µM unless noted
Experimental: Growth inhibition of the NCI-H460 human Non-Small Cell Lung tumor cell line is measured as a screen for anti-cancer activity. Cells are grown in 96 well plates and exposed to the test compound for 48 hours. Compounds are tested at a single concentration, which is 10^-5 M for most compounds. The reported endpoint is percent growth (GI% or GIPRCNT), where numbers from 0 - 100% represent growth inhibition, and numbers from -100% - 0 represent cell death. […]
This is part of a sample that, as a whole, favours compounds with a hit. Of some 83,000 tested, about 20% had one in any assay. Calls of active or inactive are those of the source. Rule for the calls: active = growth percent below 10; inactive = the rest.
Give your call using only these classes: active, inactive

Here's what some known entries look like.
{"Compound": "Cc1cc(Nc2ccc3c(c2)OCO3)c2cc3c(cc2n1)OCO3", "System": "NCI-H460 lung", "Label": "active"}
{"Compound": "Cc1cc(NC(=O)c2ccccc2)c(Cl)cc1N", "System": "NCI-H460 lung", "Label": "inactive"}
{"Compound": "COc1ccc(C2CCCCC2=O)cc1 (configuration not stated)", "System": "NCI-H460 lung", "Label": "inactive"}
{"Compound": "Cc1ccc(C)c(CN(C)C)c1O", "System": "NCI-H460 lung", "Label": "inactive"}
{"Compound": "CC(=O)NC(O)C(Cl)Cl (configuration not stated)", "System": "NCI-H460 lung", "Label": "inactive"}

Challenge: Each compound tested received a call. Report the one for S=C(NCc1ccccc1)N1CCC(CCCC2CCN(C(=S)NCc3ccccc3)CC2)CC1 .
Response given: inactive

Challenge: Each compound tested received a call. Report the one for O=C(NC(=S)N1CC=CCC1)c1ccccc1 .
Response given: inactive

Challenge: Each compound tested received a call. Report the one for CN=S(=O)(OCCCCCOS(=O)(=NC)c1ccc(C)cc1)c1ccc(C)cc1 (configuration not stated) .
Response given: inactive

Challenge: Each compound tested received a call. Report the one for N#C/C(=C\NC(=S)N=Nc1c(O)[nH]c2ccccc12)c1nc2ccccc2s1 .
Response given: inactive

Challenge: Each compound tested received a call. Report the one for O=C(Nc1ccc([N+](=O)[O-])cc1)C(=O)Nc1ccc([N+](=O)[O-])cc1 .
Response given: inactive

Challenge: Each compound tested received a call. Report the one for COc1cc(-c2ccc(NC(=O)CC(C)=O)c(OC)c2)ccc1NC(=O)CC(C)=O .
Response given: inactive

Challenge: Each compound tested received a call. Report the one for CCOC(=O)C(CCC#N)(CCC#N)C(=O)OCC .
Response given: inactive
